Values of IC50 for UniProtKB P35968, collected from a number of published sources:

compound | IC50
COc1cc2nccc(Oc3ccc(NC(=O)c4cn(CCCO)c(=O)n(-c5ccc(F)cc5)c4=O)cc3F)c2c2c1OCCO2 | 500 to 5000 nM
Cc1c(C(=O)Nc2ccc(Oc3ccnc(N)c3)cc2)c(=O)n(-c2ccccc2)n1C | > 3000 nM
Cc1[nH]c(/C=C2\C(=O)Nc3ccc(F)cc32)c(C)c1NC(=O)C1CCCN(C(=O)N2CCCC2)C1 (stereo not shown) | 143 nM
CC(C)c1cccc(NC(=O)Nc2ccc(Oc3ncnc4[nH]ncc34)c(F)c2)c1 | 32 nM
O=C(c1c(F)ccc(NS(=O)(=O)C2(C(=O)O)CC2)c1F)c1c[nH]c2ncc(Br)cc12 | ≤ 10000 nM
CC(C)(O)COc1cc(-c2ccc(N3C[C@@H]4[C@H](C3)[C@H]4NC(=O)[C@H](O)c3ccccc3)nc2)c2c(C#N)cnn2c1 | > 100 nM
O=C(c1cccc(O)c1F)c1c[nH]c2ncc(-c3cccs3)cc12 | ≤ 10000 nM

###

Values of pIC50 for Vascular endothelial growth factor receptor 2 (Homo sapiens), collected from a number of published sources:
pIC50: −log10 of the molar value.
endpoint.label: pIC50

structure.string | test.system | value
Fc1ccc(-c2cn(-c3ccc(C(F)(F)F)cc3)nc2-c2ccncc2)cc1 | Vascular endothelial growth factor receptor 2 (Homo sapiens) | 4.57
O=C(c1cccc(NS(=O)(=O)C2CCCC2)c1)c1c[nH]c2ncc(Cl)cc12 | Vascular endothelial growth factor receptor 2 (Homo sapiens) | ≥ 5.00
COc1cc(OC)cc(N(CCO)c2ccc3ncc(C4=CCN(C(=O)OC(C)(C)C)CC4)nc3c2)c1 | Vascular endothelial growth factor receptor 2 (Homo sapiens) | < 6.00
CC(=O)c1cccc(-c2ccnc3[nH]cc(Sc4cccs4)c23)c1 | Vascular endothelial growth factor receptor 2 (Homo sapiens) | ≥ 5.00
Cc1cc(OCCN(C)C)c2oc3cc(Oc4cccnc4)ccc3c(=O)c2c1 | Vascular endothelial growth factor receptor 2 (Homo sapiens) | < 5.00
CN1CCC(C(=O)c2cc(NC(=O)Nc3ccc(Oc4ccnc(NC(=O)C5CC5)c4)c(F)c3)cc(C(F)(F)F)c2)CC1 | Vascular endothelial growth factor receptor 2 (Homo sapiens) | 7.82
CN1CCN(c2ccc(Nc3ncc(-c4cccc(OC5CCCC5)c4)o3)cc2C(F)(F)F)CC1 | Vascular endothelial growth factor receptor 2 (Homo sapiens) | > 6.00
CN1CCC(Nc2cc(NC(=O)Nc3ccc(Oc4ccnc(NC(=O)C5CC5)c4)nc3)cc(C(F)(F)F)c2)CC1 | Vascular endothelial growth factor receptor 2 (Homo sapiens) | 8.21

###

Values of IC50 for Vascular endothelial growth factor receptor 2 (Homo sapiens), collected from a number of published sources:
endpoint.label: IC50

structure.string | value
O=C(c1ccccc1F)c1c[nH]c2ncc(-c3ccsc3)cc12 | ≤ 10000 nM
O=C(Nc1cccc(Oc2cc(-c3ccnc4ccnn34)ncn2)c1)Nc1ccc(Cl)c(C(F)(F)F)c1 | ≤ 10000 nM
Cc1ccc(Nc2ccc3c(NC(=O)c4ccc(C5CCN(C)CC5)cc4)n[nH]c3c2)c(F)c1 | 126 nM
COc1cc2nccc(Oc3ccc(N(C)C(=O)Nc4ccc(F)cc4)cc3)c2cc1C(N)=O | 4.6 nM
COc1cnc2c(Oc3ccc(NC(=O)c4cnc(C)c(C5=CCCC5)c4O)cc3F)ccnc2c1 | ≤ 100 nM
COc1cc(OC)cc(N(CC2CC2)c2ccc3ncc(C(=O)NCCN4CCOCC4)nc3c2)c1 | > 1000 nM
FC(F)(F)c1cccc(-c2ccnc3[nH]cc(Sc4ccncc4)c23)c1 | ≤ 10000 nM
Cc1cc(NC(=O)Nc2ccc(Cl)c(C(C)(F)F)c2)cc(Oc2cc(NC(=O)C3CC3)ncn2)c1 | 624 nM
Cc1cnc2[nH]cc(C(=O)c3c(F)ccc(NS(=O)(=O)CC(F)(F)F)c3F)c2c1 | ≤ 10000 nM
O=C(Nc1ccc(Cl)c(C(=O)Nc2cnc(Nc3ccc(C(=O)N4CCN(CCO)CC4)nc3)nc2)c1)c1cccc(C(F)(F)F)c1 | 3.1 nM
Fc1cc(F)cc(-c2ccnc3[nH]ccc23)c1 | ≤ 10000 nM
COc1cc(OC)cc(N(CCCNCC(F)(F)F)c2ccc3ncc(-c4ccnc(Cl)c4)nc3c2)c1 | > 1000 nM
CN(C)CCCOc1cc2ncnc(Nc3ccc(NC(=O)NC4CC4)c(Cl)c3)c2c2c1OCCO2 | < 50 nM
CCN(CC)S(=O)(=O)Nc1ccc(F)c(C(=O)c2c[nH]c3nccc(Cl)c23)c1F | ≤ 10000 nM
CCCS(=O)(=O)Nc1ccc(F)c(C(=O)c2c[nH]c3ncc(/C=C/C(=O)OC)cc23)c1F | ≤ 10000 nM
COc1cc(-c2cc3nccc(C4=CCOCC4)c3o2)cc(OC)c1OC | < 300 nM
